System: SNB-19
measurement_protocol: NCI tumour cell line growth inhibition, 48 h
Active and inactive are the calls of the source. No stated cut-off is given here; in the data, active = GI50 up to about 1.1 µM and inactive = higher.
Each item that follows carries a reported GI50.

molecule	measured_parameter	value
CC(C)c1cccc2sc(NC(=O)C(=O)C(C#N)c3cccc4ccccc34)nc12 (centres undefined)	GI50	> 100 µM (inactive)

Any idea what GI50 was measured for C/C=C(\C)C(=O)O[C@@H]1CC(C)(C)CC2C3=CCC4[C@]56CC[C@](O)(OC5)C(C)(C)C6CC[C@@]4(C)C3(C)CC[C@]21C(=O)O (some centres undefined) ? > 100 µM (inactive)

Same again, this time with O=C1Nc2ccccc2/C1=N/Nc1ccc([N+](=O)[O-])cc1 32.8 µM (inactive)

* * *

Tested on: NCI-H226
measurement_protocol: NCI tumour cell line growth inhibition, 48 h
The source made the active and inactive calls. No stated cut-off is given here; in the data, active = GI50 up to about 1.1 µM and inactive = higher.
// allowed return values: active, inactive

molecule	class
O=C(O)Cn1ccnc1[N+](=O)[O-]	inactive
CC(=O)c1ccc2c(c1)CC1(C2)Cc2cc3c(c(C(=O)O)c2C1)CCC3 (stereo not drawn)	inactive
CC(=O)OC12/C(=N/O)CCCCCC1c1ccccc12 (stereo not drawn)	inactive
Cc1ccc(C)c2c1n1c(=O)n(C)c(=O)n21	inactive
Cc1cn(C2CC(N)C(CN)O2)c(=O)[nH]c1=O (stereo not drawn)	inactive

What outcome does the record of this test show for NC(Cc1ccc(O)c(O)c1)P(=O)(O)O (stereo not drawn) ? inactive

Same again, this time with Cc1ccc2[nH]c3c(C)c4cc[n+](C)cc4c(C)c3c2c1 active

* * *

Test system: UO-31
measurement_protocol: NCI tumour cell line growth inhibition, 48 h
Active and inactive are the calls of the source. Rule as the data show it: active = GI50 up to about 1.1 µM and inactive = higher.
Each item that follows carries a reported GI50.

compound	GI50
C/C(=N/CC(=O)O)c1ccccc1	97.5 µM (inactive)
Cc1ccc(SCC(CF)OC(C)n2cnc3c(O)nc(N)nc32)cc1 (stereo not drawn)	> 100 µM (inactive)
Nc1nc(N)c(/N=N/c2ccc(C(=O)O)c(O)c2)c(N)n1	> 100 µM (inactive)
COc1ccc2c(c1)CCc1c-2n(CCN(C)C)c2ccc(OC)cc12	14 µM (inactive)
Cc1c(C(=O)/C=C/c2ccco2)[n+]([O-])c2ccccc2[n+]1[O-]	> 100 µM (inactive)
C=CCCC(=O)CC(=O)OCc1ccccc1	> 100 µM (inactive)
Oc1ccccc1-c1n[nH]c(-c2ccccc2O)n1	5.25 µM (inactive)
COC(=O)C(=O)C(C#N)c1nc2ccccc2s1 (stereo not drawn)	39.8 µM (inactive)
c1ccc2c(CSCc3cccc4ccccc34)cccc2c1	> 100 µM (inactive)
Cc1ccc(Oc2ccc(C)cc2N)cc1	34.8 µM (inactive)

Which measured GI50 belongs to CC1=C(C(=O)OC(C)C)C(c2ccccc2[N+](=O)[O-])C(C(=O)OC(CO[N+](=O)[O-])CO[N+](=O)[O-])=C(C)N1 (stereo not drawn) , tested on UO-31? 3.56 µM (inactive)

Same again, this time with O=[N+]([O-])C(=C(\Cl)NCCO)/C(Cl)=C(/Cl)Br 2.79 µM (inactive)

Same again, this time with CO/C=C(/C(=O)OC)[C@@H]1C[C@@H]1c1ccc2ccccc2c1 30.3 µM (inactive)

Same again, this time with CC(C)[C@@H](C)CC[C@@H](C)C1CC=C2[C@@H]3CCC4C[C@@H](O[Si](C)(C)C(C)(C)C)CC[C@]4(C)C3CC[C@@]21C (stereo partly drawn) > 100 µM (inactive)

Same again, this time with CC1=NOC(=O)/C1=C/c1ccc2c(c1)OCO2 21.1 µM (inactive)

Same again, this time with COC1/C=C\C=C(/C)C(=O)NC2=CC(=O)C=C(C2=O)C(OC)C(C)CC(OC)C(OC)C(C)/C=C(/C)C1OC(N)=O (stereo not drawn) 16.4 µM (inactive)

Same again, this time with C1=CN2C[n+]3ccc4ccccc4c3N=C2c2ccccc21 21 µM (inactive)

Same again, this time with O=[N+]([O-])c1ccccc1S(=O)(=O)c1ccccc1[N+](=O)[O-] > 82.2 µM (inactive)

Same again, this time with CCOP(=O)(OCC)C(C(=O)OC)C(=O)C(=O)Nc1c(C)cc(Br)cc1C (stereo not drawn) > 100 µM (inactive)

Same again, this time with Cc1ccc(/N=N/N(C)C(=O)C(C)N)cc1 (stereo not drawn) 34.4 µM (inactive)

Same again, this time with CCOC(=O)N1Cc2ccoc2C1 > 100 µM (inactive)

Same again, this time with NCCSc1nc(N)c2ncn(C3OC(CO)C(O)C3O)c2n1 (stereo not drawn) > 100 µM (inactive)

Same again, this time with CC(C)(C)OC(=O)N1CCC23CCCC2C(=O)CC=C13 (stereo not drawn) > 100 µM (inactive)
